Data origin: patent US20230084978A1

Assay remarks: Binding of peptides to synthetic melanin (Tricine-SDS-PAGE analysis)
Test parameters: L-Dopa polymerized first; peptide added (1/4), 2 hours at room temperature
Non-standard residues stand in square brackets, D forms with d. No end group written: not given here. Hyp = O=C(O)[C@@H]1C[C@@H](O)CN1
Quantity measured: Binding of peptides on synthetic melanin, Mel + peptide (%)

Reference set, count: 2
{"columns": ["Substance", "Recorded measurement"],
 "data": [
  ["Acetyl-R C SIYRYYGL (Ac-RCSIYRYYGL) [SEQ ID NO: 8]", 53],
  ["Acetyl-R T SIYRYYGL (Ac-RTSIYRYYGL) [SEQ ID NO: 12]", 0]
]}

[P] Acetyl-R W SIYRYYGL (Ac-RWSIYRYYGL) [SEQ ID NO: 14]
[Q] Acetyl-R SIYRYYGL (Ac-RSIYRYYGL) [SEQ ID NO: 4]
[R] P SIYRYYGL (PSIYRYYGL; Modified test peptide) [SEQ ID NO: 5]
Order the records, beginning with the lowest Binding of peptides on synthetic melanin, Mel + peptide and ending with the highest. Reply with the item labels sorted in the order that was asked for.
P, R, Q

[a] SIYRYYGL [SEQ ID NO: 3, reference compound]
[b] HydroxyP SIYRYYGL ([Hyp]SIYRYYGL) [SEQ ID NO: 6]
Which entry has a larger number for Binding of peptides on synthetic melanin, Mel + peptide, a or b ? Please indicate the selected item by its label.
b
(b: 23%, a: 0%)

----------
Assay remarks: Binding of peptides to synthetic melanin (Tricine-SDS-PAGE analysis)
Test parameters: filtered preformed melanin; peptide/L-Dopa 1/4; 18 hours, pH 7.4
No end group written: not given here.
Quantity measured: Binding of peptides on synthetic melanin, Mel + peptide 18 hours at pH 7.4 (%)

[1] Acetyl-R SIYRYYGL (Ac-RSIYRYYGL) [SEQ ID NO: 4]
[2] Acetyl-R C SIYRYYGL (Ac-RCSIYRYYGL) [SEQ ID NO: 8]
[3] SIYRYYGL [SEQ ID NO: 3, reference compound]
Ranking by Binding of peptides on synthetic melanin, Mel + peptide 18 hours at pH 7.4 (descending) is requested for the entries above. Field: ranking. Enter the labels in the order requested.
2, 3, 1
(2: 46%, 3: 28%, 1: 2%)

----------
Assay remarks: Binding of peptides to synthetic melanin (Tricine-SDS-PAGE analysis)
Test parameters: peptide/L-Dopa 1/4 mixed, then 2 hours at pH 8.5 and 60° C.
Non-standard residues stand in square brackets, D forms with d. No end group written: not given here. Hyp = O=C(O)[C@@H]1C[C@@H](O)CN1
Quantity measured: Binding of peptides on synthetic melanin, Peptide-Mel (%)

Example substances with recorded Binding of peptides on synthetic melanin, Peptide-Mel:
{"columns": ["Substance", "Recorded measurement"],
 "data": [
  ["Acetyl-R T SIYRYYGL (Ac-RTSIYRYYGL) [SEQ ID NO: 12]", 10],
  ["Acetyl-R F SIYRYYGL (Ac-RFSIYRYYGL) [SEQ ID NO: 13]", 5],
  ["P SIYRYYGL (PSIYRYYGL; Modified test peptide) [SEQ ID NO: 5]", 87],
  ["HydroxyP SIYRYYGL ([Hyp]SIYRYYGL) [SEQ ID NO: 6]", 95],
  ["Acetyl-R W SIYRYYGL (Ac-RWSIYRYYGL) [SEQ ID NO: 14]", 56]
]}

[a] SIYRYYGL [SEQ ID NO: 3, reference compound]
[b] Acetyl-R H SIYRYYGL (Ac-RHSIYRYYGL) [SEQ ID NO: 9]
[c] Acetyl-R SIYRYYGL (Ac-RSIYRYYGL) [SEQ ID NO: 4]
Order the records so the highest Binding of peptides on synthetic melanin, Peptide-Mel appears first and the lowest last. Could you list the labels in the order requested?
a, b, c
(a: 90%, b: 60%, c: 0%)
